B1: glmS ribozyme (parent)
chain: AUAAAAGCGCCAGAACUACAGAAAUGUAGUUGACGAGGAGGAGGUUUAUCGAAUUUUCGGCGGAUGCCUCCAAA

# Variants of: B1
# MEASUREMENT PROTOCOL: self-cleavage kobs at 10000 uM GlcN6P; higher = faster cleavage; RNA array
# APPLIED CONDITIONS: with glucosamine-6-phosphate
Variants at the floor of the assay were thinned out.
Binning rule for recorded self-cleavage kobs at 10000 uM GlcN6P: Low: < 0.0002 s⁻¹; Medium: ≥ 0.0002 s⁻¹ and < 0.002 s⁻¹; High: ≥ 0.002 s⁻¹

Class label required: G40C G43C
Low

Where would C11G G29A G41U C50G U56G C67U land among the classes by reported self-cleavage kobs at 10000 uM GlcN6P?
Low

Category of U54C C71G :
Medium

Which class does C8G C70U fall in?
Low

Input C10A U46G U47G C50G C58G C68U ; output its category
Medium

Which bin should I file C16U U30G under?
High

Band assignment needed for G13C U30C A36G G41C C70A please.
Low

State the class of the variant shown: C8U A42G
Low

Assign a bin to G40C U55A
Low

Kindly identify the class of A14U A52C U57A C71U .
Low

Bin? U47G C58U C70A
Low

Pick a category. Item: U46G C61G G63A
Low

Band of C11U C34G G41A U47G ?
Low

Hi, small favor: classify A12G U54G by its self-cleavage kobs at 10000 uM GlcN6P when you get a moment.
Medium

Determine which band this variant sits in: G13U C71A
Low

Which category fits this record: A14U G43C U45G
Medium

Which category fits this record: G66U U69A
Low

Field: class (self-cleavage kobs at 10000 uM GlcN6P) — entry: A39U U57A
Low

Pick a category. Item: C11A A53C
Low

Assign a category based on measured self-cleavage kobs at 10000 uM GlcN6P for A12C U31G and give only the class name.
High

Which bin should I file C8G C50A C61G G63A C71G under?
Medium

Kindly state the category for this variant: A6U C34G
Low

Bin? A39C U56A
High

Form field 'band' for U30A G38U U65G C68G
Low

Place this variant in its band: A15G U47G
High

Consider A48U G59U C68A . To which self-cleavage kobs at 10000 uM GlcN6P class does it belong?
Low

Hey, which category is A15U U30G in, do you know?
High

Quick check: band for C16G U54A
High

Given C19A U31A , name the class its self-cleavage kobs at 10000 uM GlcN6P places it in.
High

Sort into band: G40C A64G
Medium

Textbook exercise: identify the category of the variant given here, A15G A53G , according to its measured value.
High
